System: T-47D breast
Assay: NCI tumour cell line growth inhibition, 48 h
MEASURED ENDPOINT: TGI

Some entries whose results are on file:
CCN(CC)C(=S)N/N=C(/C)c1cccc(/C(C)=N\NC(=S)N(CC)CC)n1
16.9 µM
Nc1nc(N)c2ncn(-c3ccc(Cl)cc3)c2n1
> 100 µM
COc1ccc(-c2n[nH]nc2-c2cc(OC)c(OC)c(OC)c2)cc1
57.3 µM
COCN(CCC1=CCCCC1)C(=O)OC
> 100 µM
O=C1/C(=N/O)Cc2c(Br)ccc(Br)c21
> 100 µM
COC(=O)C1=CNC=C(C(=O)OC)C1C1=CC(=O)C(C)=CC1=O
44.6 µM

Field TGI (entry COc1cc2c3c(n(CCCNC(=O)OCC4c5ccccc5-c5ccccc54)c(=O)c2cc1OC)-c1cc2c(cc1/C3=C\CCNC(=O)OCC1c3ccccc3-c3ccccc31)OCO2 ) reads > 50 µM

Field TGI (entry C[C@@]12CC=C3c4nc(Nc5cccc(O)c5)sc4CC[C@]3(C)[C@H]1CC[C@]1(C)C(=O)CC[C@@H]21 ) reads 8.3 µM

Field TGI (entry Cc1cc(C(=O)Nc2ncc(Cc3cccc(C(F)(F)F)c3)s2)c2ccccc2n1 ) reads > 100 µM

Field TGI (entry O=C(c1ccc(N=Cc2ccccc2O)cc1)c1ccc(N=Cc2ccccc2O)cc1 ) reads > 100 µM

Field TGI (entry NP(=O)(Oc1c2occc2cc2ccc(=O)oc12)N(CCCl)CCCl (stereo unspecified) ) reads > 100 µM

Field TGI (entry CCCCC(O)(c1ccc(Cl)cc1)C(CN1CCOCC1)c1ccc(Cl)cc1 (stereo unspecified) ) reads 25 µM

Field TGI (entry O=C1C=CC[C@H]2O[C@@H](COC(=O)Cc3ccccc3)C[C@H]2O1 ) reads > 100 µM

Field TGI (entry CON(C)C(=O)CNC(=O)OCC1c2ccccc2-c2ccccc21 ) reads > 100 µM

Field TGI (entry Nc1cc2[nH]c(=O)c(=O)[nH]c2cc1N ) reads > 100 µM

Field TGI (entry CC(C)(C)c1cc(Br)c(O)c(CN(Cc2cc(C(C)(C)C)cc(Br)c2O)C2CCCCC2)c1 ) reads 21.4 µM

Field TGI (entry O=C1C=C(C2=CC(=O)C(=O)c3ccccc32)c2ccccc2C1=O ) reads 56.1 µM

Field TGI (entry COc1cc(/C=C2/C[C@H]3[C@@H]4CC=C5C[C@@H](O)CC[C@]5(C)[C@H]4CC[C@]3(C)NC2=O)cc(OC)c1OC ) reads > 100 µM

---

System: HOP-62 NSCLC
Assay: NCI tumour cell line growth inhibition, 48 h
MEASURED ENDPOINT: TGI

CSc1ncnc2c1ncn2C1CC(Oc2ccc(C)cc2)C(COc2ccc(C)cc2)O1 (stereo not given)
> 100 µM
COc1cc(/C=C2/C[C@H]3[C@@H]4CC=C5C[C@@H](O)CC[C@]5(C)[C@H]4CC[C@]3(C)NC2=O)cc(OC)c1OC
> 89.1 µM
Clc1nc(Cl)c(Cl)c(-c2ccccc2)n1
18.1 µM
COc1cc(C(C)O)c[n+](CCc2c[nH]c3ccccc23)c1 (stereo not given)
> 100 µM

From here, focus on the item given below.
Assay HOP-62 NSCLC, sample O=C(N/N=C/c1ccc(Cl)cc1)c1ccc(C(F)(F)F)nc1Nc1cccc(C(F)(F)F)c1 , TGI read: 10.9 µM

Hello, the source for this data is PubChem BioAssay (NCI), in case you need it.
